Biological target: PKC
Assay: Mixed micellar protein kinase C (PKC) assay, in vitro inhibition of PKC
Conditions: partially purified rat brain PKC; histone III-S substrate; 23°C, 15 minutes; 2% DMSO
Please respond with reported pIC50 for every item in the list.
// pIC50 is dimensionless: -log10 of concentration (M)

stdin: Tell me the measured pIC50 of O=C1NC(=O)c2c1c1c3ccccc3n3c1c1c2c2ccccc2n1[C@@H]1O[C@H]3C[C@H]1CO (relative stereo) [Example 36] , please.
stdout: 8.00

stdin: Tell me the measured pIC50 of Cc1ccc2c(c1)c1c(C#N)c(C#N)c3c4cc(C)ccc4n4c3c1n2[C@@H]1CC[C@H]4O1 [Example 28] , please.
stdout: 7.24

stdin: Tell me the measured pIC50 of O=C1NC(=O)c2c1c1c3ccccc3n3c1c1c2c2ccccc2n1[C@@H]1O[C@H]3C[C@H]1C(=O)O (relative stereo) [Example 63] , please.
stdout: 7.70

stdin: Tell me the measured pIC50 of CN(C)C[C@@H]1C[C@@H]2O[C@H]1n1c3ccccc3c3c4c(c5c6ccccc6n2c5c31)C(=O)NC4=O (relative stereo) [Example 49] , please.
stdout: 8.40

stdin: Tell me the measured pIC50 of O=C1NC(=O)c2c1c1c3ccccc3n3c1c1c2c2ccccc2n1[C@@H]1O[C@H]3C[C@H]1Cn1ccnc1 (relative stereo) [Example 48] , please.
stdout: 8.15

stdin: Tell me the measured pIC50 of [N-]=[N+]=NC[C@H]1C[C@@H]2O[C@H]1n1c3ccccc3c3c4c(c5c6ccccc6n2c5c31)C(=O)NC4=O (relative stereo) [Example 41] , please.
stdout: 8.12

stdin: Tell me the measured pIC50 of CS(=O)(=O)OC[C@@H]1C[C@@H]2O[C@H]1n1c3ccccc3c3c4c(c5c6ccccc6n2c5c31)C(=O)NC4=O (relative stereo) [Example 40] , please.
stdout: 7.82

stdin: Tell me the measured pIC50 of CNC(=O)[C@@H]1C[C@@H]2O[C@H]1n1c3ccccc3c3c4c(c5c6ccccc6n2c5c31)C(=O)NC4=O (relative stereo) [Example 65] , please.
stdout: 9.30

stdin: Tell me the measured pIC50 of NC(=O)[C@H]1C[C@@H]2O[C@H]1n1c3ccccc3c3c4c(c5c6ccccc6n2c5c31)C(=O)NC4=O (relative stereo) [Example 37] , please.
stdout: 6.94

stdin: Tell me the measured pIC50 of CC(C)(C)OC(=O)CNC(=O)[C@@H]1C[C@@H]2O[C@H]1n1c3ccccc3c3c4c(c5c6ccccc6n2c5c31)C(=O)NC4=O (relative stereo) [Example 64] , please.
stdout: 7.72

stdin: Tell me the measured pIC50 of Cc1ccc2c(c1)c1c3c(c4c5cc(C)ccc5n5c4c1n2[C@@H]1CC[C@H]5O1)C(=N)NC3=O (relative stereo) [Example 29] , please.
stdout: 7.38

stdin: Tell me the measured pIC50 of Cc1ccc2c(c1)c1c(Br)c(Br)c3c4cc(C)ccc4n4c3c1n2[C@@H]1CC[C@H]4O1 [Example 27] , please.
stdout: 7.74

stdin: Tell me the measured pIC50 of O=C1NC(=O)c2c1c1c3ccccc3n3c1c1c2c2ccccc2n1[C@@H]1O[C@H]3C[C@H]1C(=O)NCc1ccccc1 (relative stereo) [Example 66] , please.
stdout: 7.70

###

Target: PKC
Test: Mixed micellar protein kinase C (PKC) assay, in vitro inhibition of PKC
Details: partially purified rat brain PKC; histone III-S substrate; 23°C, 15 minutes; 2% DMSO
valueType: pIC50
// pIC50 is dimensionless: -log10 of concentration (M)

stdin: Tell me the measured pIC50 of CO[C@H]1C[C@@H]2O[C@H]1n1c3ccccc3c3c4c(c5c6ccccc6n2c5c31)C(=O)NC4=O (relative stereo) [Example 38] , please.
stdout: 8.85

stdin: Tell me the measured pIC50 of NC(=O)[C@@H]1C[C@@H]2O[C@H]1n1c3ccccc3c3c4c(c5c6ccccc6n2c5c31)C(=O)NC4=O (relative stereo) [Example 67] , please.
stdout: 9.22

stdin: Tell me the measured pIC50 of O=C1NC(O)c2c1c1c3ccccc3n3c1c1c2c2ccccc2n1[C@H]1CC[C@@H]3O1 (stereo partly shown) [Example 26] , please.
stdout: 7.72

stdin: Tell me the measured pIC50 of O=C(NC[C@@H]1C[C@@H]2O[C@H]1n1c3ccccc3c3c4c(c5c6ccccc6n2c5c31)C(=O)NC4=O)c1ccccc1 (relative stereo) [Example 46] , please.
stdout: 6.64

stdin: Tell me the measured pIC50 of CN(C)C(=O)[C@@H]1C[C@@H]2O[C@H]1n1c3ccccc3c3c4c(c5c6ccccc6n2c5c31)C(=O)NC4=O (relative stereo) [Example 68] , please.
stdout: 9.00

stdin: Tell me the measured pIC50 of Cc1ccc2c(c1)c1c3c(c4c5cc(C)ccc5n5c4c1n2[C@@H]1C[C@H](CO)[C@H]5O1)C(=O)NC3=O (relative stereo) [Example 58] , please.
stdout: 7.64

stdin: Tell me the measured pIC50 of CS(=O)(=O)OC[C@H]1C[C@@H]2O[C@H]1n1c3ccccc3c3c4c(c5c6ccccc6n2c5c31)C(=O)NC4=O (relative stereo) [Example 39] , please.
stdout: 8.30

stdin: Tell me the measured pIC50 of S=C1NC(=S)c2c1c1c3ccccc3n3c1c1c2c2ccccc2n1[C@H]1CC[C@@H]3O1 [Example 25] , please.
stdout: 7.89

stdin: Tell me the measured pIC50 of O=C(O)CNC(=O)[C@@H]1C[C@@H]2O[C@H]1n1c3ccccc3c3c4c(c5c6ccccc6n2c5c31)C(=O)NC4=O (relative stereo) [Example 69] , please.
stdout: 9.10

stdin: Tell me the measured pIC50 of O=C1NC(=O)c2c1c1c3ccccc3n3c1c1c2c2ccccc2n1[C@@H]1O[C@H]3C[C@@H]1CO (relative stereo) [Example 35] , please.
stdout: 8.12

stdin: Tell me the measured pIC50 of NC[C@@H]1C[C@@H]2O[C@H]1n1c3ccccc3c3c4c(c5c6ccccc6n2c5c31)C(=O)NC4=O (relative stereo) [Example 45] , please.
stdout: 7.89

stdin: Tell me the measured pIC50 of Cc1ccc2c(c1)c1c3c(c4c5cc(C)ccc5n5c4c1n2[C@@H]1C[C@@H](CO)[C@H]5O1)C(=O)NC3=O (relative stereo) [Example 57] , please.
stdout: 7.64

stdin: Tell me the measured pIC50 of Cc1ccc2c(c1)c1c3c(c4c5cc(C)ccc5n5c4c1n2[C@@H]1CC[C@H]5O1)C(=O)NC3=O [Example 30] , please.
stdout: 7.30
